Test Details: Toxicity in sc dosed Sprague-Dawley rat after 10 days
Format: organism-based
Condition Parameters: in vivo
Quantity Measured: MTD at 240 h (mg/kg/day)
Only the number, expressed in mg/kg/day, is required.

Name the recorded MTD at 240 h of the item `Cc1cc(C[C@@H](NC(=O)N2CCC(c3cc4ccccc4[nH]c3=O)CC2)C(=O)N2CCN(C3CCN(C)CC3)CC2)cc2cn[nH]c12` in your answer.
30

---

Test Details: Chemical degradation in succinate buffer at 40 mg/mL after 3 months at pH 6
Quantity Measured: Degradation % at 2191.5 h, 40 mg/mL

Name the recorded Degradation % at 2191.5 h, 40 mg/mL of the item `Cc1cc(C[C@@H](NC(=O)N2CCC(c3cc4ccccc4[nH]c3=O)CC2)C(=O)N2CCN(C3CCN(C)CC3)CC2)cc2cn[nH]c12` in your answer.
0.3%

---

Test Details: Permeability from apical to basolateral side of human Caco2 cells
Type: ADME, cell-based
Condition Parameters: Caco-2, read-out: permeability
Quantity Measured: Papp A→B
The reply should read as a number followed by its unit.

Name the recorded Papp A→B of the item `Cc1cc(C[C@@H](NC(=O)N2CCC(c3cc4ccccc4[nH]c3=O)CC2)C(=O)N2CCN(C3CCN(C)CC3)CC2)cc2cn[nH]c12` in your answer.
1.6 ×10⁻⁶ cm/s

---

pIC50: −log10 of the molar value.
Quantity Measured: pIC50

Give pIC50 for this entry on Cytochrome P450 2C9 (Homo sapiens, UniProt P11712): Cc1cc(C[C@@H](NC(=O)N2CCC(c3cc4ccccc4[nH]c3=O)CC2)C(=O)N2CCN(C3CCN(C)CC3)CC2)cc2cn[nH]c12 [ZAVEGEPANT]
Sequence (P11712 whole entry): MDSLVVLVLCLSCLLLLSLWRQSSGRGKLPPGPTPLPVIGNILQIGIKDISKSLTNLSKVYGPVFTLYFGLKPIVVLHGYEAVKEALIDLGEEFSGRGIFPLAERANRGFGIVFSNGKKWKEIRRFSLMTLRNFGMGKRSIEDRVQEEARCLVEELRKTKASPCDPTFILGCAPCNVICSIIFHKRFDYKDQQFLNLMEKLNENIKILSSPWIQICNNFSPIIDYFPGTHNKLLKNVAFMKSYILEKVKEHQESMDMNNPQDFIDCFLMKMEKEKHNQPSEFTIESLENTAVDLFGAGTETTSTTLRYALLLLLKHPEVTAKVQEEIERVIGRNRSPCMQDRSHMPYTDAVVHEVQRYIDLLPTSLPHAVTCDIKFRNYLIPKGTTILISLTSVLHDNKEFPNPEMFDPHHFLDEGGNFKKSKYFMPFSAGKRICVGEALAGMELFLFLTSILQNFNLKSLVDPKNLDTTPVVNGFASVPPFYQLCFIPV
< 4.40

---

Test Details: Oral bioavailability in intranasally dosed New Zealand White rabbit at 100 mg/mL
Assay type: ADME, organism-based, Oryctolagus cuniculus
Condition Parameters: in vivo, other: intranasal
Quantity Measured: bioavailability (%)
Only the number, expressed in %, is required.

Name the recorded bioavailability of the item `Cc1cc(C[C@@H](NC(=O)N2CCC(c3cc4ccccc4[nH]c3=O)CC2)C(=O)N2CCN(C3CCN(C)CC3)CC2)cc2cn[nH]c12` in your answer.
30

---

Test Details: Plasma concentration in marmoset at 0.03 mg/kg, sc measured 15 to 105 mins post-dose
Assay type: ADME, organism-based, Callithrix jacchus
Parameters: dose 0.03 mg/kg, route subcutaneous
Condition Parameters: in vivo
Quantity Measured: concentration (nM)
Only the number, expressed in nM, is required.

Name the recorded concentration of the item `Cc1cc(C[C@@H](NC(=O)N2CCC(c3cc4ccccc4[nH]c3=O)CC2)C(=O)N2CCN(C3CCN(C)CC3)CC2)cc2cn[nH]c12` in your answer.
25

---

Tested On: Cytochrome P450 3A4 (Homo sapiens, UniProt P08684)
Sequence (P08684 whole entry): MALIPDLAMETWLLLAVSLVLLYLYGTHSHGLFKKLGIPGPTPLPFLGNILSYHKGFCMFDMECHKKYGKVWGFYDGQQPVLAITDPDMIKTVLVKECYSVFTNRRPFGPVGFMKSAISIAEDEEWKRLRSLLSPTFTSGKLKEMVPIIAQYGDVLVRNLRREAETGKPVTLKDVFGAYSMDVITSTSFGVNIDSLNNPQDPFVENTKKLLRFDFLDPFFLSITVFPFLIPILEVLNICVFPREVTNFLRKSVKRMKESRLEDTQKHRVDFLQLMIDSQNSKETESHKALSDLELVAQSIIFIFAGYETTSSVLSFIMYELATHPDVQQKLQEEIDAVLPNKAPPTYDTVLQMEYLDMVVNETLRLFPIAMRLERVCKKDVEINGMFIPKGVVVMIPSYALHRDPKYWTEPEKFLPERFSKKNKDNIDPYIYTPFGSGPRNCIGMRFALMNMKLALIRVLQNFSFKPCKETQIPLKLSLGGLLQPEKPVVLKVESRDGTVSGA
Test Details: Inhibition of CYP3A4 (unknown origin) expressed in baculovirus-infected insect cell microsomes assessed as benzoylresorufin conversion to resorufin metabolites after 45 mins by fluorescence assay
Type: ADME, Microsome
Quantity Measured: pIC50
For clarity, pIC50 is expressed as the negative log10 of concentration in mol/L.

Give pIC50 for this entry on Cytochrome P450 3A4 (Homo sapiens, UniProt P08684): Cc1cc(C[C@@H](NC(=O)N2CCC(c3cc4ccccc4[nH]c3=O)CC2)C(=O)N2CCN(C3CCN(C)CC3)CC2)cc2cn[nH]c12 [ZAVEGEPANT]
4.62
